Numbers sourced from patent US20220324953A1.

# tgt: T1, mouse CTGF (antigen of the Biacore assay) (mouse, UniProt P29268 26-348)
# T1 construct: also called mouse CTGF protein
# T1 sequence (looked up): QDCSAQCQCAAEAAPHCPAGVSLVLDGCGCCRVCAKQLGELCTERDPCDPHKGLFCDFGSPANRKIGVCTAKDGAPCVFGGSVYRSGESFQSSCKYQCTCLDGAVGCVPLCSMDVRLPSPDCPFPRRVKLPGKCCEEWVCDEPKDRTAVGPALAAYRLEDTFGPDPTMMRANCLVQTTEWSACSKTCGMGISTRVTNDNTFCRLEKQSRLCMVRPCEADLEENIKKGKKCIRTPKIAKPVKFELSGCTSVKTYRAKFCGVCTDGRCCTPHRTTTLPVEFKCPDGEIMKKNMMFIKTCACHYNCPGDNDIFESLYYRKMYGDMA
# experiment: Biacore, antibody captured on Protein A, mouse CTGF in flow, 1:1 fit
property: Kd (nM)
I only need the number, in nM, no unit after it.

Field: example entries. Status: answers known.
Hu147-11wk (antibody, human IgG1, kappa, V domains shown) VH: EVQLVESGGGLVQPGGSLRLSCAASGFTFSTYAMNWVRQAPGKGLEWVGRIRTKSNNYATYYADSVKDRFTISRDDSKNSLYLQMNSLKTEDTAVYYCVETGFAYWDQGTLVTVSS VL: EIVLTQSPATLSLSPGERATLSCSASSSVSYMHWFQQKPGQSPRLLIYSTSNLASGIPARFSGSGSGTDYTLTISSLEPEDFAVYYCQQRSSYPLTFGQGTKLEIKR = 3.11
Hu147-13wk (antibody, human IgG1, kappa, V domains shown) VH: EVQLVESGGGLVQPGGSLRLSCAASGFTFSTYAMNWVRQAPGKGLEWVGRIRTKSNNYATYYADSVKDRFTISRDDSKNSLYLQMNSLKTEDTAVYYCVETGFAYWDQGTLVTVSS VL: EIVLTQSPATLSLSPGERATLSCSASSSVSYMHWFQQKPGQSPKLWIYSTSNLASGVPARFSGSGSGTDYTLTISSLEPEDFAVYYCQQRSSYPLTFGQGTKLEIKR = 2.55
Hu95-41wk (antibody, human IgG1, kappa, V domains shown) VH: EVQLVQSGAEVKKPGASVKVSCKASGFTFTNYDIHWVKQAPGQRLEWIGLVYPYNGGTAYNQKFKDKATLTFDTSASTAYMELSSLRSEDTAVYYCARWGLIPGTTSYFDVWGQGTTVTVSS VL: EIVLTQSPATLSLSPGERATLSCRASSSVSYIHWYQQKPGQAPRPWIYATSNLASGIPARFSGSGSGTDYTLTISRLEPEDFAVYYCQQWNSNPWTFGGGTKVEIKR = 2.44

Alright, here's another binder for you.
So, Hu164-87wl (antibody, human IgG1, lambda, V domains shown) VH: EVQLQESGPGLVKPSQTLSLTCTVSGFSISTFGVHWIRQHPGKGLEWLGVIWRRGGTDYNAAFMSRLTISKDTSKNQVSFKLSSVTAADTAVYYCARDGGFDYWGQGTTVTVSS VL: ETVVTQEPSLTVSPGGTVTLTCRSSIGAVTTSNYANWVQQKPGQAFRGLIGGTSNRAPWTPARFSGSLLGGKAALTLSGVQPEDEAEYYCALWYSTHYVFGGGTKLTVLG ? Its Kd was 0.084
